biological target: PDCD6 23-191 EF-hand_5+EF-hand_7 (domain begin residue: 23, domain end residue: 191), O75340; experiment: phage ELISA signal ratio (GST-PRM binding over GST background); higher = stronger binding of peptide-phage to the PRM
Sequence (O75340 whole entry): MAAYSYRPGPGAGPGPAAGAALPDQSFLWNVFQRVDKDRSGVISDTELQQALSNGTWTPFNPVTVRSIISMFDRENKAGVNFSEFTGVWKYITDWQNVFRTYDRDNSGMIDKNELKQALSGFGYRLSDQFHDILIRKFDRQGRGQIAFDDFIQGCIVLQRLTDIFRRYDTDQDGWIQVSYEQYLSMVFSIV
Listed below: phage ELISA signal ratio values for each entry.
A bare number is all that is needed in reply.

Below, 5 binders whose answers are already recorded.
VSYGWAHWTMEQGEDA    28.1
AAQYGWQDWVMVPESM    32.8
DSHYGWAEWVLQGPVA    35.1
YGWDPFLENISWSWQA    33.4
WAPWVFMDDAPFDSMV    24.8

Reported phage ELISA signal ratio for DIPPESYGWAPWVWQV : what is it?
35.3

Reported phage ELISA signal ratio for VNYGWTPEVTWWLHEA : what is it?
14.4

Reported phage ELISA signal ratio for ADYPFEVWQAWVFEEV : what is it?
36.3
